Test conditions: Patient ID 173, CYP2D6 functional group EM/EM
Endpoint: plasma concentration (ng/mL)
Report only the number, with the unit ng/mL understood.

Record excerpt, results attached:
>>> observed("CC/C(=C(/c1ccc(OCCNC)cc1)c1ccc(O[C@@H]2O[C@H](C(=O)O)[C@@H](O)[C@H](O)[C@H]2O)cc1)c1ccccc1")
0.934
>>> observed("CC/C(=C(\\c1ccccc1)c1ccc(OCCN(C)C)cc1)c1ccc(O)cc1")
1.31
>>> observed("CCC(=C(c1ccccc1)c1ccc(OCCNC)cc1)c1ccc(O)cc1")
1.843
>>> observed("CC/C(=C(\\c1ccc(O)cc1)c1ccc(OCCNC)cc1)c1ccccc1 [(Z)-Endoxifen 3-OH-NDM-Tam]")
5.32

Now for another entry.
Query :: Please give the documented plasma concentration of `CC/C(=C(\c1ccccc1)c1ccc(OCCN(C)C)cc1)c1ccccc1`
Result :: 112.57
